experiment: Index of bioavailability (% Relative Activity) from plasma TT time course, oral vs i.v.; format: in vivo; settings: p.o. dose per legend (20, 60 or 50 mg/kg)
Counter-ions that a name gives are not always drawn.
measurement-type: % oral/i.v. activity (Rat), screening not completed

{"compound": "N=C(N)c1ccc(CNC(=O)[C@@H]2C[C@@H]3CCCC[C@@H]3N2C(=O)[C@@H](CC2CCCCC2)NCC(=O)O)cc1 (relative stereo) [Example 49, hydrochloride]", "value-observed": "NC^2"}
{"compound": "N=C(N)c1ccc(CNC(=O)[C@@H]2C[C@@H]3CCCC[C@@H]3N2C(=O)[C@@H](Cc2ccccc2)NCC(=O)O)cc1 (relative stereo) [Example 47]", "value-observed": "NC^2"}
{"compound": "Cl.Nc1ccc(CNC(=O)[C@@H]2CCCN2C(=O)[C@@H](CC2CCCCC2)NCC(=O)O)c(F)c1 [Example 64]", "value-observed": "NC^3"}
{"compound": "CCS(=O)(=O)N[C@H](Cc1ccccc1)C(=O)N1CCC[C@H]1C(=O)NCCc1ccc(C(=N)N)cc1 [Example 26]", "value-observed": "NC^1"}

Entry N=C(N)c1ccc(CNC(=O)[C@@H]2CCCN2C(=O)[C@@H](CC2CCCCC2)NCC(=O)O)c(F)c1 [Example 71, hydrochloride] , % oral/i.v. activity (Rat), screening not completed reported as NC^1

Entry CCS(=O)(=O)N[C@H](Cc1ccccc1)C(=O)N1[C@H](C(=O)NCc2ccc(C(=N)N)cc2)C[C@@H]2CCCC[C@@H]21 (relative stereo) [Example 45, hydrochloride] , % oral/i.v. activity (Rat), screening not completed reported as NC^2

Entry N=C(N)c1cc(F)c(CNC(=O)[C@@H]2CCCN2C(=O)[C@@H](CC2CCCCC2)NCC(=O)O)c(F)c1 [Example 72, hydrochloride] , % oral/i.v. activity (Rat), screening not completed reported as NC^1

Entry Cl.Cl.N=C(N)c1ccc(CNC(=O)C2CC3CCCCC3N2C(=O)C2NCCC3CCCCC32)cc1 (centres unmarked) [Example 42] , % oral/i.v. activity (Rat), screening not completed reported as NC2

###

target: Human Thrombin (Homo sapiens, UniProt P00734); assay: Inhibition of thrombin amidase activity (Kass), chromogenic substrate; type: biochemical; details: mean Kass over a range of concentrations; substrate N-benzoyl-Phe-Val-Arg-p-nitroanilide
measurement-type: Kass Human Thrombin

In the examples that follow, each entry is paired with its recorded Kass Human Thrombin.
{"compound": "Cl.O=C(O)CN[C@H](CC1CCCCC1)C(=O)N1CCC[C@H]1C(=O)NCC1=CCNCC1", "assayed-system": "Human Thrombin (Homo sapiens, UniProt P00734)", "value-observed": "0.60 × 10^6 (L/mole)"}
{"compound": "Cl.Cl.N=C(N)c1ccc(CCNC(=O)[C@@H]2CCCN2C(=O)[C@@H]2NCC[C@@H]3CCCC[C@@H]32)cc1", "assayed-system": "Human Thrombin (Homo sapiens, UniProt P00734)", "value-observed": "0.95 × 10^6 (L/mole)"}
{"compound": "N=C(N)c1ccc(CNC(=O)[C@@H]2CCCN2C(=O)[C@H]2C[C@H]3CCCC[C@H]3CN2)cc1 [Example 19, D-3-Piq-Pro-p-NHCH2 C6 H4 C(NH)NH2.3HCl]", "assayed-system": "Human Thrombin (Homo sapiens, UniProt P00734)", "value-observed": "11 × 10^6 (L/mole)"}
{"compound": "Cl.Cl.N=C(N)c1cccc(CCNC(=O)[C@@H]2CCCN2C(=O)[C@@H]2NCC[C@@H]3CCCC[C@@H]32)c1", "assayed-system": "Human Thrombin (Homo sapiens, UniProt P00734)", "value-observed": "0.76 × 10^6 (L/mole)"}
{"compound": "Cl.N=C(N)c1cccc(CNC(=O)[C@@H]2CCCN2C(=O)[C@H](N)Cc2ccccc2)c1 [Example 16, D-Phe-Pro-m-NHCH2 C6 H4 C(NH)NH2.0.75HCl]", "assayed-system": "Human Thrombin (Homo sapiens, UniProt P00734)", "value-observed": "0.97 × 10^6 (L/mole)"}

Entry CCOC(=O)N[C@H](Cc1ccccc1)C(=O)N1CCC[C@H]1C(=O)NCCCCN=C(N)N.Cl [Example 3, EtOCO-D-Phe-Pro-Agm.HCl] , Kass Human Thrombin reported as 2.1 × 10^6 (L/mole)

###

molecular target: Human Thrombin (Homo sapiens, UniProt P00734); test: Inhibition of thrombin amidase activity (Kass), chromogenic substrate; assay type: biochemical; settings: mean Kass over a range of concentrations; substrate N-benzoyl-Phe-Val-Arg-p-nitroanilide
measurement-type: Kass Human Thrombin

In the examples that follow, each entry is paired with its recorded Kass Human Thrombin.
{"molecule": "Cl.Nc1ccc(CNC(=O)[C@@H]2CCCN2C(=O)[C@@H](CC2CCCCC2)NCC(=O)O)c(F)c1", "Kass Human Thrombin": "15 × 10^6 (L/mole)"}
{"molecule": "Cl.N=C(N)c1ccc(CCCNC(=O)C2CCCN2C(=O)C2NCCC3CCCCC32)cc1 (stereo not drawn)", "Kass Human Thrombin": "0.13 × 10^6 (L/mole)"}

Continue with the molecule presented below.
Entry N=C(N)N1CCC(CCNC(=O)[C@@H]2CCCN2C(=O)[C@@H](CC2CCCCC2)NCC(=O)O)CC1 , Kass Human Thrombin reported as 39 × 10^6 (L/mole)

###

Parameter Kass Human Thrombin: see the listing below.
target: Human Thrombin (Homo sapiens); experiment: Inhibition of thrombin amidase activity (Kass), chromogenic substrate; type: biochemical; settings: mean Kass over a range of concentrations; substrate N-benzoyl-Phe-Val-Arg-p-nitroanilide
Structures can show the parent of a compound that is named as a salt.

{"molecule": "CCS(=O)(=O)N[C@H](CC1CCCCC1)C(=O)N1CCC[C@H]1C(=O)NCc1ccc(N)cc1F.Cl", "Kass Human Thrombin": "5.0 × 10^6 (L/mole)"}

Entry CCS(=O)(=O)N[C@H](CC1CCCCC1)C(=O)N1CCC[C@H]1C(=O)NCc1ccc(C(=N)N)cc1 [Example 80, hydrochloride] , Kass Human Thrombin reported as 1,700 × 10^6 (L/mole)

Entry Cl.N=C(N)c1ccc(CNC(=O)CN(CCc2ccccc2)C(=O)CNCC(=O)O)cc1 , Kass Human Thrombin reported as 0.14 × 10^6 (L/mole)

Entry Cl.NCc1cccc(CNC(=O)[C@@H]2CCCN2C(=O)[C@H](N)Cc2ccccc2)c1 [Example 11, D-Phe-Pro-m-NHCH2 C6 H4 CH2 NH2.HCl] , Kass Human Thrombin reported as 0.064 × 10^6 (L/mole)
